- conditions: in isobutanol, 303.15 K

{"compound": "Cc1ccc(S(=O)(=O)NC(=O)NN2CC3CCCC3C2)cc1 (stereo unspecified)", "solubility (mole fraction)": 0.00146}

###

- conditions: in n-propanol, 278.15 K

{"compound": "Cc1ccc(S(=O)(=O)NC(=O)NN2CC3CCCC3C2)cc1 (stereo unspecified)", "solubility (mole fraction)": 0.000655}

###

- conditions: in n-propanol, 293.15 K
measured quantity: solubility (mole fraction)

{"compound": "Cc1ccc(S(=O)(=O)NC(=O)NN2CC3CCCC3C2)cc1 (stereo unspecified)", "quantitative result": 0.00129}

###

- conditions: in sec-butanol, 313.15 K
measured quantity: solubility (mole fraction)

{"molecule": "Cc1ccc(S(=O)(=O)NC(=O)NN2CC3CCCC3C2)cc1 (stereo unspecified)", "result": 0.00258}

###

- conditions: in isopropanol, 283.15 K
measured quantity: solubility (mole fraction)

{"molecule": "Cc1ccc(S(=O)(=O)NC(=O)NN2CC3CCCC3C2)cc1 (stereo unspecified)", "quantitative result": 0.000439}

###

- conditions: in isobutanol, 283.15 K

{"compound": "Cc1ccc(S(=O)(=O)NC(=O)NN2CC3CCCC3C2)cc1 (stereo unspecified)", "solubility (mole fraction)": 0.000544}

###

- conditions: in ethyl acetate, 283.15 K
measured quantity: solubility (mole fraction)

{"compound": "Cc1ccc(S(=O)(=O)NC(=O)NN2CC3CCCC3C2)cc1 (stereo unspecified)", "quantitative result": 0.00174}

###

- conditions: in chloroform, 283.15 K
measured quantity: solubility (mole fraction)

{"molecule": "Cc1ccc(S(=O)(=O)NC(=O)NN2CC3CCCC3C2)cc1 (stereo unspecified)", "quantitative result": 0.0641}

###

- conditions: in isobutanol, 308.15 K

{"molecule": "Cc1ccc(S(=O)(=O)NC(=O)NN2CC3CCCC3C2)cc1 (stereo unspecified)", "solubility (mole fraction)": 0.0018}

###

- conditions: in isopropanol, 313.15 K

{"compound": "Cc1ccc(S(=O)(=O)NC(=O)NN2CC3CCCC3C2)cc1 (stereo unspecified)", "solubility (mole fraction)": 0.00192}

###

- conditions: in toluene, 293.15 K

{"compound": "Cc1ccc(S(=O)(=O)NC(=O)NN2CC3CCCC3C2)cc1 (stereo unspecified)", "solubility (mole fraction)": 0.000634}

###

- conditions: in n-propanol, 308.15 K
measured quantity: solubility (mole fraction)

{"molecule": "Cc1ccc(S(=O)(=O)NC(=O)NN2CC3CCCC3C2)cc1 (stereo unspecified)", "result": 0.00238}

###

- conditions: in cyclohexanone, 318.15 K

{"compound": "Cc1ccc(S(=O)(=O)NC(=O)NN2CC3CCCC3C2)cc1 (stereo unspecified)", "solubility (mole fraction)": 0.0371}

###

- conditions: in acetone, 308.15 K

{"compound": "Cc1ccc(S(=O)(=O)NC(=O)NN2CC3CCCC3C2)cc1 (stereo unspecified)", "solubility (mole fraction)": 0.0219}

###

- conditions: in cyclohexanone, 278.15 K

{"molecule": "Cc1ccc(S(=O)(=O)NC(=O)NN2CC3CCCC3C2)cc1 (stereo unspecified)", "solubility (mole fraction)": 0.0112}

###

- conditions: in acetonitrile, 313.15 K
measured quantity: solubility (mole fraction)

{"compound": "Cc1ccc(S(=O)(=O)NC(=O)NN2CC3CCCC3C2)cc1 (stereo unspecified)", "quantitative result": 0.00658}

Attribution: BigSolDB 2.1
